# measured.target: T1, human TRBC1 (hTRBC1), construct BIM0443 (human, UniProt P01850 1-129, limits assumed)
# T1 construct: also called Human TRBC1 (BIM0443); BIM0443 (hTRBC1)
# T1 sequence (P01850 1-129 limits assumed): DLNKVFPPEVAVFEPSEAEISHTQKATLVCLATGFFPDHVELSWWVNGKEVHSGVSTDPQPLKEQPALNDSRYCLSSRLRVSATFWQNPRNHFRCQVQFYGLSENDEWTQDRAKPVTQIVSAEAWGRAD
# assay.text: SPR (BIAcore T200), antibody captured via anti-human Fc on CM5, hTRBC1 BIM0443 injected 15.6-500 nM, 1:1 fit
pKd: −log10 of the molar value.
The following binders are listed with their measured pKd values.

binder: BKM0191 (single arm) (antibody, V domains shown, Single arm anti-TRBC1 construct with human Fc; also called G29A) VH: QVQLVQSGAEVKKPGSSVKVSCKASGYTFTGYVMHWVRQAPGQGLEWMGFIIPIFGTANYAQKFQGRVTITSDKSTTTAYMELSSLRSEDTAVYYCARGAGYNFDGAYRFFDFWGQGTLVTVSS VL: DVVMTQSPLSLPVTLGQPASISCRSSQRLVHSNANTYLHWYQQRPGQSPRLLIYRVSNRFPGVPDRFSGSGSGTDFTLKISRVEAEDVGVYFCSQSTHVPYTFGGGTKVEIK
pKd: 7.12

binder: BKM0192 (single arm) (antibody, V domains shown, Single arm anti-TRBC1 construct with human Fc; also called T31A) VH: QVQLVQSGAEVKKPGSSVKVSCKASGYTFTGYVMHWVRQAPGQGLEWMGFIIPIFGTANYAQKFQGRVTITSDKSTTTAYMELSSLRSEDTAVYYCARGAGYNFDGAYRFFDFWGQGTLVTVSS VL: DVVMTQSPLSLPVTLGQPASISCRSSQRLVHSNGNAYLHWYQQRPGQSPRLLIYRVSNRFPGVPDRFSGSGSGTDFTLKISRVEAEDVGVYFCSQSTHVPYTFGGGTKVEIK
pKd: 6.86

binder: BJM0578 (bivalent) (antibody, V domains shown, Bivalent construct with a human Fc) VH: QVQLVQSGAEVKKPGSSVKVSCKASGYTFTGYVMHWVRQAPGQGLEWMGFIIPIFGTANYAQKFQGRVTITSDKSTTTAYMELSSLRSEDTAVYYCARGAGYNFDGAYRFFDFWGQGTLVTVSS VL: DVVMTQSPLSLPVTLGQPASISCRSSQRLVHSNGNTYLHWYQQRPGQSPRLLIYRVSNRFPGVPDRFSGSGSGTDFTLKISRVEAEDVGVYFCSQSTHVPYTFGGGTKVEIK
pKd: 7.12

binder: BKM0196 (single arm) (antibody, V domains shown, Single arm anti-TRBC1 construct with human Fc; also called N28G N30S) VH: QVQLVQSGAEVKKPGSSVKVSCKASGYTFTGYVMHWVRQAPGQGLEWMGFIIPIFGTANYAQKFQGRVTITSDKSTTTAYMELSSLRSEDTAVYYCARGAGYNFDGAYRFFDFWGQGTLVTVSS VL: DVVMTQSPLSLPVTLGQPASISCRSSQRLVHSGGSTYLHWYQQRPGQSPRLLIYRVSNRFPGVPDRFSGSGSGTDFTLKISRVEAEDVGVYFCSQSTHVPYTFGGGTKVEIK
pKd: 6.16

binder: BKM0195 (single arm) (antibody, V domains shown, Single arm anti-TRBC1 construct with human Fc; also called N30S) VH: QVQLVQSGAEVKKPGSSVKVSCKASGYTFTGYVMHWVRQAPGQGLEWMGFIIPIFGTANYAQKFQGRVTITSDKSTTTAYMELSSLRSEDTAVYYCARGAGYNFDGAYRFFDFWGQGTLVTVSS VL: DVVMTQSPLSLPVTLGQPASISCRSSQRLVHSNGSTYLHWYQQRPGQSPRLLIYRVSNRFPGVPDRFSGSGSGTDFTLKISRVEAEDVGVYFCSQSTHVPYTFGGGTKVEIK
pKd: 6.50
